Data credit: ChEMBL document CHEMBL4038325

target: Mu-type opioid receptor (Homo sapiens); assay: Agonist activity at recombinant human MOR expressed in HEK293T cells assessed as inhibition of forskolin-stimulated cAMP level at 10 uM preincubated for 15 to 20 mins followed by forskolin addition by GloSensor assay relative to control; assay type: functional, cell-based; settings: HEK-293T
Sequence (P35372 whole entry): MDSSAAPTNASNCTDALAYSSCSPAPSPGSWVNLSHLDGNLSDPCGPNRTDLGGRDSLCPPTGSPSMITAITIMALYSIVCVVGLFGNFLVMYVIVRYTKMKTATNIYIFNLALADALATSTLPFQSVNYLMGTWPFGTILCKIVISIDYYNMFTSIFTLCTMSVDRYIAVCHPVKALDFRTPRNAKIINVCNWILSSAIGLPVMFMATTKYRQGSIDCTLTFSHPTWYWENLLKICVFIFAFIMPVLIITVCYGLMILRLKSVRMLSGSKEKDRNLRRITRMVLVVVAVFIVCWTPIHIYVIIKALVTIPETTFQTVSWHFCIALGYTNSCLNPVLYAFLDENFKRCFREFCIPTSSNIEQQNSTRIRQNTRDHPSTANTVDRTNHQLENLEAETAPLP
Active and inactive are the calls of the source. The rule behind the calls is not given here.
Outcome (select one): true for active, false for inactive

These solved cases illustrate the format of a correct answer.
O=C(O)CNC(=O)C(Cc1ccccc1)CN1CCN(c2ccccc2O)CC1 (centres undefined) ... false
O=C(O)CNC(=O)/C(=C/c1ccccc1)CN1CCN(c2ccc(O)cc2)CC1 ... false

Which outcome was assigned to CC(C)[C@H](NC(=O)/C(=C/c1ccccc1)CN1CCN(c2ccc(O)cc2)CC1)C(=O)O in this test?
false

Kindly provide the recorded test outcome for the following compound: O=C(O)/C(=C/c1ccccc1)CN1CCN(c2cccc(Cl)c2Cl)CC1
false

Name the outcome recorded for CCC(C)C(NC(=O)/C(=C/c1ccccc1)CN1CCN(c2ccc(O)cc2)CC1)C(=O)O (centres undefined) in the assay.
false
